- Experimental target: Adenosine receptor A2b (Homo sapiens)
- Run description: Displacement of [3H]DPCPX from recombinant human adenosine A2B receptor expressed in HEK293 cells at 0.1 uM
- Assay type: cell-based
Assay readout: inhibition (%)

CCCn1c(=O)c2[nH]c(-c3ccc(OCC(=O)Nc4cc(OC)nc(OC)n4)cc3)cc2n(CCC)c1=O = 80
Cn1c(=O)c2[nH]c(-c3ccc(OCC(=O)Nc4nncs4)cc3)cc2n(C)c1=O = 81
CCCn1c(=O)c2[nH]c(-c3ccc(OCC(=O)Nc4ccc(-c5ccccc5)cc4)cc3)cc2n(CCC)c1=O = 80
CCCn1c(=O)c2[nH]c(-c3ccc(OCC(=O)Nc4ccc(O)cc4)cc3)cc2n(CCC)c1=O = 79

----------
- Experimental target: Adenosine receptor A2b (Homo sapiens)
- Sequence (whole entry): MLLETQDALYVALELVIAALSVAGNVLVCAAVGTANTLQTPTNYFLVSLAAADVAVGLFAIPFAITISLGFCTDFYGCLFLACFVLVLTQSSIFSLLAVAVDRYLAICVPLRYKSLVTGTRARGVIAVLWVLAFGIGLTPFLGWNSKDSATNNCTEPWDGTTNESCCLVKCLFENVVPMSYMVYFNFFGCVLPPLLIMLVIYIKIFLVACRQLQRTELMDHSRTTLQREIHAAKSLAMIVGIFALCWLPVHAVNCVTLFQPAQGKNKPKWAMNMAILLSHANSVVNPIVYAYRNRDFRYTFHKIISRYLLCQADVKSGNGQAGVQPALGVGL
- Run description: Displacement of [3H]DPCPX from recombinant human adenosine A2B receptor expressed in HEK293 cells at 0.01 uM
Assay readout: inhibition (%)

CCCn1c(=O)c2[nH]c(-c3ccc(OC(C)(C)C(=O)O)cc3)cc2n(CCC)c1=O = 12
COc1cc(OCC(=O)Nc2ccccc2)ccc1-c1cc2c([nH]1)c(=O)n(C)c(=O)n2C = 12
Cn1c(=O)c2[nH]c(-c3ccc(OCC(=O)Nc4ccccc4)cc3)cc2n(C)c1=O = 44
CCCn1c(=O)c2[nH]c(-c3ccc(OC(C)C(=O)Nc4ccc(OC)cc4)cc3)cc2n(CCC)c1=O (centres undefined) = 55
Cn1c(=O)c2[nH]c(-c3ccc(OCC(=O)Nc4ccc(F)cc4)cc3)cc2n(CCN2CCOCC2)c1=O = 16
CCN(Cc1ccccc1)C(=O)COc1ccc(-c2cc3c([nH]2)c(=O)n(C)c(=O)n3C)cc1 = 15

P. CCCn1c(=O)c2[nH]c(-c3ccc(OCC(=O)c4c(NC(=O)O)n(C)c(=O)n(C)c4=O)cc3)cc2n(CCC)c1=O
Q. O=C(COc1ccc(-c2cc3c([nH]2)c(=O)n(CC2CC2)c(=O)n3CC2CC2)cc1)Nc1ccc(F)cc1
[in] Compare reported inhibition values for P and Q . Which is lower? The response must carry the label of the picked entry.
[out] P

----------
# Ki measurements, system: Adenosine receptor A2a (Homo sapiens)
# Sequence (P29274 whole entry): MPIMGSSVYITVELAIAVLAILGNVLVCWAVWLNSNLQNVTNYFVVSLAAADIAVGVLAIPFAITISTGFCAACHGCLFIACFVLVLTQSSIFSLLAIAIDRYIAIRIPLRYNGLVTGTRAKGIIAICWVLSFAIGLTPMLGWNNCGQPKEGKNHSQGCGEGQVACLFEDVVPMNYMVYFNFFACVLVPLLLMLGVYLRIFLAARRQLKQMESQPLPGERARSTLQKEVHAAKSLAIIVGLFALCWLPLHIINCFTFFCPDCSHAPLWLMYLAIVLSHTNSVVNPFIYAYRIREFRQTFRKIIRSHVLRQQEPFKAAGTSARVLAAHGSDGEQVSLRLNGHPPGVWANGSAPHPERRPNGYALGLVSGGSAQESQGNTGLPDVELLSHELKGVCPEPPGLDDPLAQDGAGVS
Assay readout: Ki (nM)

CCCn1c(=O)c2[nH]c(-c3ccc(OCC(=O)Nc4cccc(F)c4)cc3)c(Cl)c2n(CCC)c1=O = 245

I. Cn1c(=O)c2[nH]c(-c3ccc(OCC(=O)NC4CCc5ccccc54)cc3)cc2n(C)c1=O (configuration not stated)
II. CCCn1c(=O)c2[nH]c(-c3ccc(OCC(=O)Nc4ccccc4)cc3)c(Cl)c2n(CCC)c1=O
[in] Of the two listed items, I and II , which carries the larger Ki figure? Indicate which entry you chose by stating its label.
[out] I
